Measured log10 of IC50 on Histone deacetylase 9 (Homo sapiens, UniProt Q9UKV0) follows.
Sequence (Q9UKV0 whole entry): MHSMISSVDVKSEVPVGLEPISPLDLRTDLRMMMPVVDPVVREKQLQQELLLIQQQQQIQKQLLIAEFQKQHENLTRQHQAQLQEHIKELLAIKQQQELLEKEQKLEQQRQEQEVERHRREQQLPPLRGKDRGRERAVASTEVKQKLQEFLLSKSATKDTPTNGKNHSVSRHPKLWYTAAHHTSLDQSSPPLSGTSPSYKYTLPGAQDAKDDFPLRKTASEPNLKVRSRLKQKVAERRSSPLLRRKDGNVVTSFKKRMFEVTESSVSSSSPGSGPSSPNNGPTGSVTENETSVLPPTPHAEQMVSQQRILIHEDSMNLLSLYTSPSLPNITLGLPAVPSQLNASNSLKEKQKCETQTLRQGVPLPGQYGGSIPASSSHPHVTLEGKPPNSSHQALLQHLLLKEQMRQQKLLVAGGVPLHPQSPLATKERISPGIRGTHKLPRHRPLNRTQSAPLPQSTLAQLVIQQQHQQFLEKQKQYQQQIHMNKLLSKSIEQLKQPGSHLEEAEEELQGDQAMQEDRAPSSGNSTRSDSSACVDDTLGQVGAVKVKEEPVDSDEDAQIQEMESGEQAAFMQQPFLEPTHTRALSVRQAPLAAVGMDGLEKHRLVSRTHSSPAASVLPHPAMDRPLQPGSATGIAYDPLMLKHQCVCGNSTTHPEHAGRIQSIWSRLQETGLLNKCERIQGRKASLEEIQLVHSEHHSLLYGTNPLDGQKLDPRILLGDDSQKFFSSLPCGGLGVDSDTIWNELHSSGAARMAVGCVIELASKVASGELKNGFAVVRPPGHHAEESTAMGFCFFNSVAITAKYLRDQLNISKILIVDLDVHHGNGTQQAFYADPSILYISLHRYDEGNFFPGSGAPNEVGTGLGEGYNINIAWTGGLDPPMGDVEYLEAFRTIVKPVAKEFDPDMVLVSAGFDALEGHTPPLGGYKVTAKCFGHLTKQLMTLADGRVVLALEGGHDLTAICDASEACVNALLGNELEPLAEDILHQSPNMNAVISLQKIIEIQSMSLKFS
Please be aware that the numbers have been log10-transformed from IC50 in nM.

INPUT: Which log10 of IC50 is reported for this compound? O=C(NO)c1ccc(CN2c3ccccc3Sc3ccc(C(F)(F)F)cc32)cc1
OUTPUT: 3.41

INPUT: What about this compound? NC(=O)c1ccc2c(c1)N(Cc1ccc(/C=C/C(=O)NO)cc1)c1ccccc1S2
OUTPUT: 3.92

INPUT: Same for CSc1ccc2c(c1)N(Cc1ccc(C(=O)NO)cc1)c1ccccc1[S+]2[O-] (stereo unspecified)
OUTPUT: 2.86

INPUT: Next record, please: CSc1ccc2c(c1)N(Cc1ccc(C(=O)NO)cc1)c1ccccc1S2
OUTPUT: 3.51

INPUT: Param item: O=C(NO)c1ccc(CN2c3ccccc3Sc3ccc(Cl)cc32)cc1
OUTPUT: 2.54

INPUT: Here is the next compound: C/C(=N\O)c1ccc2c(c1)N(Cc1ccc(C(=O)NO)cc1)c1ccccc1S2
OUTPUT: 3.64

---

For each record, write down the corresponding pIC50.
# system-tested: Protein deacetylase HDAC6 (Homo sapiens)
# Sequence (Q9UBN7 whole entry): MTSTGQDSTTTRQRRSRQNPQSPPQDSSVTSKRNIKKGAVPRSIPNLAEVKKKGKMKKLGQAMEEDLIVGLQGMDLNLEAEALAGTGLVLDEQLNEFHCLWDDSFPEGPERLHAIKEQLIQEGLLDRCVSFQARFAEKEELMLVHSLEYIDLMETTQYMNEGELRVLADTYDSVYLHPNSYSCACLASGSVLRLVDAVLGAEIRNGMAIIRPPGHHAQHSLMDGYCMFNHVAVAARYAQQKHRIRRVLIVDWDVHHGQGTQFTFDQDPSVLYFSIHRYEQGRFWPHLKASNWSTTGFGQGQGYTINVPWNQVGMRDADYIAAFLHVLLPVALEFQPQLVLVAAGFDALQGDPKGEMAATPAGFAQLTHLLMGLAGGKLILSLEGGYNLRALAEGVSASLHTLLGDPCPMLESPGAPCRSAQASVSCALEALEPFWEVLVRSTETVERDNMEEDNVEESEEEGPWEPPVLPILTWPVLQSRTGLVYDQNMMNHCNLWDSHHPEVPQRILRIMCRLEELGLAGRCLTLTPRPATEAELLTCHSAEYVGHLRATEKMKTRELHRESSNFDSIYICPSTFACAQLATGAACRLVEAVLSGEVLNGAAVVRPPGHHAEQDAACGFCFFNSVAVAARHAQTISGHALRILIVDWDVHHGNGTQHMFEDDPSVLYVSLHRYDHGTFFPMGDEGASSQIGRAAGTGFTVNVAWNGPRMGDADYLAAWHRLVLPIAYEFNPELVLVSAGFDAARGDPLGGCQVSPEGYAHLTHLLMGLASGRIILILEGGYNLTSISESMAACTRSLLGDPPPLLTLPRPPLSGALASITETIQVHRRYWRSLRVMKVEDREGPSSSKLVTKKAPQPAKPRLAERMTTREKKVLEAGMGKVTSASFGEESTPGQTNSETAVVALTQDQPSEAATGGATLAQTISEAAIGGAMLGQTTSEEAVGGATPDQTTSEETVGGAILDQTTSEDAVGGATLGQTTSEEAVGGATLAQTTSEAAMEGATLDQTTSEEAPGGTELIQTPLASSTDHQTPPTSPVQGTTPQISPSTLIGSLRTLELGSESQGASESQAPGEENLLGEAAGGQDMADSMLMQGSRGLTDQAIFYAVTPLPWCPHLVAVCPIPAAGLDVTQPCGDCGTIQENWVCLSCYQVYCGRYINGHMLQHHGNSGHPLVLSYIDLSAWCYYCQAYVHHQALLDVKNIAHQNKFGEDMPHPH
The quantity pIC50 is defined as the negative base-10 logarithm of the molar concentration.

INPUT: Param item = COc1ccc2c(c1)N(Cc1ccc(C(=O)NO)cc1)c1ccccc1S2 ; retrieve measured pIC50.
OUTPUT: 7.72

INPUT: Now consider O=C(NO)c1ccc(CN2c3ccccc3Sc3ccc(Cl)cc32)cc1 .
OUTPUT: 8.02

INPUT: Now the same for CSc1ccc2c(c1)N(Cc1ccc(C(=O)NO)cc1)c1ccccc1S2
OUTPUT: 8.03

INPUT: Now consider NC(=O)c1ccc2c(c1)N(Cc1ccc(C(=O)NO)cc1)c1ccccc1[S+]2[O-] (configuration not stated) and answer again.
OUTPUT: 7.84

INPUT: Could you do the same for O=C(NO)c1ccc(CN2c3ccccc3Sc3ccc(C(F)(F)F)cc32)cc1 , please?
OUTPUT: 7.85

INPUT: Moving on to the next compound: CSc1ccc2c(c1)N(Cc1ccc(C(=O)NO)cc1)c1ccccc1[S+]2[O-] (configuration not stated)
OUTPUT: 7.44

INPUT: Another compound: C/C(=N\O)c1ccc2c(c1)N(Cc1ccc(C(=O)NO)cc1)c1ccccc1S2
OUTPUT: 7.97

---

# system-tested: Histone deacetylase
# assay-explanation: Inhibition of HDAC in human HeLa nuclear extracts using Boc-Lys (acetyl)-AMC as substrate preincubated for 5 mins followed by substrate addition and further incubated for 30 mins by fluorescence based assay
# Assay type: subcellular, Nucleus
reported-metric: IC50 (nM)
# output: bare number, implied unit nM

INPUT: I'd like to know its IC50. The molecule in question is O=C(NO)c1ccc(CN2c3ccccc3[S+]([O-])c3ccccc32)cc1
OUTPUT: 2760

INPUT: Next molecule up: O=C(NO)c1ccc(CN2c3ccccc3Sc3ccc(Cl)cc32)cc1
OUTPUT: 290

INPUT: Follow-up item: COc1ccc2c(c1)N(Cc1ccc(C(=O)NO)cc1)c1ccccc1S2
OUTPUT: 350

INPUT: Please answer likewise for C/C(=N\O)c1ccc2c(c1)N(Cc1ccc(C(=O)NO)cc1)c1ccccc1S2
OUTPUT: 330

INPUT: Now give it for NC(=O)c1ccc2c(c1)N(Cc1ccc(/C=C/C(=O)NO)cc1)c1ccccc1S2 too.
OUTPUT: 20

INPUT: Next molecule: O=C(NO)c1ccc(Nc2c3ccccc3nc3ccc(Br)cc23)cc1
OUTPUT: 160

INPUT: // next record NC(=O)c1ccc2c(c1)N(Cc1ccc(C(=O)NO)cc1)c1ccccc1[S+]2[O-] (stereo not given)
OUTPUT: 1690

INPUT: Check CSc1ccc2c(c1)N(Cc1ccc(C(=O)NO)cc1)c1ccccc1[S+]2[O-] (stereo not given) too.
OUTPUT: 1680

INPUT: Entry O=C(NO)c1ccc(CN2c3ccccc3Sc3ccc(C(F)(F)F)cc32)cc1 please
OUTPUT: 840

INPUT: Can you check CSc1ccc2c(c1)N(Cc1ccc(C(=O)NO)cc1)c1ccccc1S2 next?
OUTPUT: 680

---

# system-tested: Histone deacetylase 7 (Homo sapiens)
# Sequence (Q8WUI4 whole entry): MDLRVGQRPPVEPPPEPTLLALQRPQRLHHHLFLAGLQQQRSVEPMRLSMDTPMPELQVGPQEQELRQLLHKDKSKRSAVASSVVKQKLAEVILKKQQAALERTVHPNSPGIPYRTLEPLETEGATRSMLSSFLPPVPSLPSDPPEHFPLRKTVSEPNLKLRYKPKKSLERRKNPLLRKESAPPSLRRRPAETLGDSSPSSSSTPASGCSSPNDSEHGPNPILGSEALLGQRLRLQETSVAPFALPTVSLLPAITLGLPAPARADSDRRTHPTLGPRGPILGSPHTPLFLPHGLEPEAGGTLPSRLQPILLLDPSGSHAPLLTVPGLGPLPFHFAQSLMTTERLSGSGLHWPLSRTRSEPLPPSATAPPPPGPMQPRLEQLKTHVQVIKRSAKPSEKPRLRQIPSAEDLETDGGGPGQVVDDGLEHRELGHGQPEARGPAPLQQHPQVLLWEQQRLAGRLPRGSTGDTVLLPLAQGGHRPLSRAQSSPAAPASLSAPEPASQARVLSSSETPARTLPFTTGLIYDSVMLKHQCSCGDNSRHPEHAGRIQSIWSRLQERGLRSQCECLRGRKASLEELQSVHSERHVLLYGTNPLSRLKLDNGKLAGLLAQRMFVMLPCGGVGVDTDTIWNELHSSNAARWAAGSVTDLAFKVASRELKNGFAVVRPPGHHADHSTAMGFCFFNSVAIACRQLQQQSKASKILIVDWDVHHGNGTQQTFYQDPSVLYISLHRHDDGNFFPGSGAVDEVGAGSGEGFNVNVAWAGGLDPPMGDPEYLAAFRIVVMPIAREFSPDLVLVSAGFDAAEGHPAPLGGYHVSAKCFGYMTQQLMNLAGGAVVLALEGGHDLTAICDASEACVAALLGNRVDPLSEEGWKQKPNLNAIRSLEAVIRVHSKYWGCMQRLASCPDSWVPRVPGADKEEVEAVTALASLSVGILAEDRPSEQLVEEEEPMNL
Would you kindly list pIC50 for each of these compounds?
Kindly note that pIC50 refers to -log10 of the concentration in mol/L and answer with the value alone.

INPUT: Any idea what pIC50 was measured for CSc1ccc2c(c1)N(Cc1ccc(C(=O)NO)cc1)c1ccccc1S2 ?
OUTPUT: 5.65

INPUT: Same question for O=C(NO)c1ccc(CN2c3ccccc3[S+]([O-])c3ccccc32)cc1 please.
OUTPUT: 5.29

INPUT: What about O=C(NO)c1ccc(CN2c3ccccc3Sc3ccc(Cl)cc32)cc1 ?
OUTPUT: 5.87

INPUT: Note, next up: O=C(NO)c1ccc(CN2c3ccccc3Sc3ccc(C(F)(F)F)cc32)cc1
OUTPUT: 5.65

---

Kindly supply the reported IC50 values for the records listed here.
# system-tested: Histone deacetylase 4 (Homo sapiens, UniProt P56524)
# Sequence (P56524 whole entry): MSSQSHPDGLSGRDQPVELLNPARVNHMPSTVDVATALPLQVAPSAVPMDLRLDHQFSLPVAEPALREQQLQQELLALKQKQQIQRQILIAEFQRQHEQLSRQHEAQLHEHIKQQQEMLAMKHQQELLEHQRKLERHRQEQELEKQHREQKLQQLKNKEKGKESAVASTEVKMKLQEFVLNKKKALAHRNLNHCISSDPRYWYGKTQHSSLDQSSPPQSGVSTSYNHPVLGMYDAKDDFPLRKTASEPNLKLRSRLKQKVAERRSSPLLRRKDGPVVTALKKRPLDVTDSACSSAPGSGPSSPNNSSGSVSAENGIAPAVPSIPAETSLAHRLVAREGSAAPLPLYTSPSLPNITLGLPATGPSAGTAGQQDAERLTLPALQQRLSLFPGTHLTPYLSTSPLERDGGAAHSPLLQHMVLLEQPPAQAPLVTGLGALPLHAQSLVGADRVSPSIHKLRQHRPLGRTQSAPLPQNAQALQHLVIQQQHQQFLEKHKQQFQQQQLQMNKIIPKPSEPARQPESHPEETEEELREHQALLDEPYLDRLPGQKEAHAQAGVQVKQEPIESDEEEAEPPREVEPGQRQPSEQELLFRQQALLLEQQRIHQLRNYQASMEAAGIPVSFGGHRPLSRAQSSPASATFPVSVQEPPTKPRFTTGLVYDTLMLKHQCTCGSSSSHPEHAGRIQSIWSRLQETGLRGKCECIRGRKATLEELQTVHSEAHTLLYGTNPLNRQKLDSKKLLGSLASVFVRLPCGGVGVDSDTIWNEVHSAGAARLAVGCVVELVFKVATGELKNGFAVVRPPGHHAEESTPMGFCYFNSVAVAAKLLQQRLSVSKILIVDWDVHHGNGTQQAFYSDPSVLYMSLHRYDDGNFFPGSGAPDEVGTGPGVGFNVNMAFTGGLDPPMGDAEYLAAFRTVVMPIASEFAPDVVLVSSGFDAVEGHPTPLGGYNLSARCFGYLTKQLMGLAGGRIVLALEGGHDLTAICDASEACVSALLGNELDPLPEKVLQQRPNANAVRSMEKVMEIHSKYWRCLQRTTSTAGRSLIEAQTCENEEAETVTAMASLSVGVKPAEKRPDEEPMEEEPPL
# number only, unit µM dropped from output

INPUT: Fill in the blank: the reported IC50 of C/C(=N\O)c1ccc2c(c1)N(Cc1ccc(C(=O)NO)cc1)c1ccccc1S2 is ____.
OUTPUT: 3.85

INPUT: Now the molecule O=C(NO)c1ccc(CN2c3ccccc3Sc3ccc(C(F)(F)F)cc32)cc1
OUTPUT: 7.59

INPUT: Param item: O=C(NO)c1ccc(CN2c3ccccc3[S+]([O-])c3ccccc32)cc1
OUTPUT: 6.62

INPUT: Next record, please: NC(=O)c1ccc2c(c1)N(Cc1ccc(C(=O)NO)cc1)c1ccccc1[S+]2[O-] (centres undefined)
OUTPUT: 12.9
